# testSystem: UniProt:P35348
# Sequence (P35348 1-466): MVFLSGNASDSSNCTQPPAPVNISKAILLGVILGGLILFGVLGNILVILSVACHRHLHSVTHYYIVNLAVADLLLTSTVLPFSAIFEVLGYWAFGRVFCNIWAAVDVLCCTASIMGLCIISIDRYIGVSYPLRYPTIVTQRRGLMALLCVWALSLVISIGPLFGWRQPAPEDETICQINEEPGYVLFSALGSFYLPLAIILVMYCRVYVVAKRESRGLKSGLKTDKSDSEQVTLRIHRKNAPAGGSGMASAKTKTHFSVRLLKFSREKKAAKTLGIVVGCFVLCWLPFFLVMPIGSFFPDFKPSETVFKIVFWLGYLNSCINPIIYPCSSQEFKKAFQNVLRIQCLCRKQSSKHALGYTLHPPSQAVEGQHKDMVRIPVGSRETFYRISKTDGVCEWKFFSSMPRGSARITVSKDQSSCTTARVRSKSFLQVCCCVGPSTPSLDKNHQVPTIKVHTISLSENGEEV
# assayName: biochemical
experimentalEndpoint: pKi
Scale explanation: pKi corresponds to minus log10 of a concentration expressed in moles per litre.

// query Give the measured pKi of CN(C)[C@@H]1Cc2ccccc2[C@@H](c2cccc(Br)c2)C1 (single isomer, unassigned) .
// result 7.99
